Each item that follows carries a reported melting point.
attribute-measured: melting point

[[record]]
molecule = "Clc1cc2c(cc1/C=C/c1nnc(Cc3ccc(Br)cc3)o1)OCO2"
attribute_measured = "melting point"
endpoint_value = "186.2 °C"

[[record]]
molecule = "FC(F)(F)c1ccc(Cl)c(/C=C/c2nnc(Cc3cccc(Br)c3)o2)c1"
attribute_measured = "melting point"
endpoint_value = "106.9 °C"

[[record]]
molecule = "Cc1nn(Cc2nnc([S+]([O-])Cc3ccccc3-c3ccccc3)o2)c(C)c1Br (stereo not shown)"
attribute_measured = "melting point"
endpoint_value = "48.2 °C"

[[record]]
molecule = "Fc1ccc(/C=C/c2nnc(Cc3ccc(Br)c(F)c3)o2)c(Cl)c1"
attribute_measured = "melting point"
endpoint_value = "166.2 °C"


---

attribute-measured: melting point (°C)

[[record]]
smiles_string = "Cc1cc(C)cc(Nc2nnc(SCc3ccccc3-c3ccccc3)o2)c1"
attribute_measured = "melting point"
endpoint_value = 232.2

[[record]]
smiles_string = "COc1cccc(Cc2nnc(/C=C/c3ccc(F)cc3Cl)o2)c1"
attribute_measured = "melting point"
endpoint_value = 131.7

[[record]]
smiles_string = "COc1ccc2cccc(Cc3nnc(/C=C/c4ccc(F)cc4Cl)o3)c2c1"
attribute_measured = "melting point"
endpoint_value = 179.9

[[record]]
smiles_string = "Cc1ccc(Cc2nnc(/C=C/c3ccc(F)cc3N(C)CCc3ccccc3)o2)cc1Br"
attribute_measured = "melting point"
endpoint_value = 80.7

[[record]]
smiles_string = "Fc1ccc(/C=C/c2nnc(Cc3ccc(F)c(Cl)c3)o2)c(Cl)c1"
attribute_measured = "melting point"
endpoint_value = 142.2

[[record]]
smiles_string = "Cc1cc(Cc2nnc(/C=C/c3ccc(F)cc3Cl)o2)ccc1Br"
attribute_measured = "melting point"
endpoint_value = 119.9

[[record]]
smiles_string = "Cc1cccc(Cc2nnc(/C=C/c3ccc(F)cc3Cl)o2)c1C"
attribute_measured = "melting point"
endpoint_value = 139.3

[[record]]
smiles_string = "COc1ccccc1CSc1nnc(Cn2nc(C)c(Br)c2C)o1"
attribute_measured = "melting point"
endpoint_value = 87.3

[[record]]
smiles_string = "Cc1nn(Cc2nnc(SCc3ccc(-c4ccccc4)cc3)o2)c(C)c1Br"
attribute_measured = "melting point"
endpoint_value = 135.9


---

test: in vitro; conditions: CC50 B/Florida/04/2006, cytotoxicity in the B/Florida/04/2006 assay
attribute-measured: CC50 (µM)

[[record]]
molecule = "O=C(c1ccccc1)c1nnc(Cc2ccc(Br)cc2)o1"
reported_relation = ">"
endpoint_value = 50

[[record]]
molecule = "Cc1nn(Cc2nnc([S+]([O-])Cc3ccccc3-c3ccccc3)o2)c(C)c1Br (stereo not shown)"
reported_relation = "="
endpoint_value = 7.81

[[record]]
molecule = "Cc1cc(C)n(Cc2nnc(SCc3ccccc3-c3ccccc3)o2)n1"
reported_relation = ">"
endpoint_value = 50

[[record]]
molecule = "Cc1nn(C(=O)c2ccc(Oc3ccccc3C(C)C)o2)c(C)c1Br"
reported_relation = ">"
endpoint_value = 50

[[record]]
molecule = "Cc1nn(Cc2nnc(SCc3ccccc3Oc3ccccc3)o2)c(C)c1Br"
reported_relation = "="
endpoint_value = 5.23

[[record]]
molecule = "CN(c1ccc(Br)cc1)c1nnc(SCc2ccccc2-c2ccccc2)o1"
reported_relation = ">"
endpoint_value = 50

[[record]]
molecule = "Brc1ccc(NCc2nnc(SCc3ccccc3-c3ccccc3)o2)cc1"
reported_relation = ">"
endpoint_value = 50

[[record]]
molecule = "c1ccc(-c2ccccc2CSc2nnc(-c3cnn(-c4ccccc4)c3)o2)cc1"
reported_relation = ">"
endpoint_value = 50

[[record]]
molecule = "Cc1cccc(C)c1Nc1nnc(C(=O)c2ccccc2)o1"
reported_relation = ">"
endpoint_value = 50

[[record]]
molecule = "Cc1cccc(C)c1Nc1nnc(C(=O)c2ccc(F)c(Cl)c2)o1"
reported_relation = ">"
endpoint_value = 50

[[record]]
molecule = "O=C(NCc1nnc(SCc2ccccc2-c2ccccc2)o1)c1ccc(Br)cc1"
reported_relation = "="
endpoint_value = 28.6

[[record]]
molecule = "O=C(Nc1ccc(Br)cc1)c1nnc(SCc2ccccc2-c2ccccc2)o1"
reported_relation = "="
endpoint_value = 25

[[record]]
molecule = "Cc1nn(Cc2nnc(SCc3ccccc3-n3cccc3)o2)c(C)c1Br"
reported_relation = "="
endpoint_value = 11.8

[[record]]
molecule = "Cc1ccccc1CSc1nnc(Cn2nc(C)c(Br)c2C)o1"
reported_relation = ">"
endpoint_value = 50

[[record]]
molecule = "Cc1nn(Cc2nnc(SCc3ccccc3-c3ccc(Cl)cc3)o2)c(C)c1Br"
reported_relation = "="
endpoint_value = 6.28

[[record]]
molecule = "Cc1nn(Cc2nnc(SCc3ccccc3C(C)C)o2)c(C)c1Br"
reported_relation = "="
endpoint_value = 14.2

[[record]]
molecule = "c1ccc(-c2cnn(Cc3nnc(SCc4ccccc4-c4ccccc4)o3)c2)cc1"
reported_relation = ">"
endpoint_value = 50

[[record]]
molecule = "Cc1nn(Cc2nnc(NCc3ccccc3-c3ccccc3)o2)c(C)c1Br"
reported_relation = "="
endpoint_value = 38.1

[[record]]
molecule = "[O-][S+](Cc1ccccc1-c1ccccc1)c1nnc(Cc2ccc(Br)cc2)o1 (stereo not shown)"
reported_relation = ">"
endpoint_value = 50


---

system: A/California/07/2009 (H1N1); experiment: Antiviral activity (drug efficacy evaluation by concentration) against A/California/07/2009 (H1N1); type: cell-based, A type influenza virus; settings: Influenza A virus, H1N1; read-out: EC50
pEC50: −log10 of the molar value.
attribute-measured: pEC50

[[record]]
smiles_string = "Cc1nn(Cc2nnc(S(=O)(=O)Cc3ccccc3-c3ccccc3)o2)c(C)c1Br"
assayed_target = "A/California/07/2009 (H1N1)"
reported_relation = "="
endpoint_value = 5.89

[[record]]
smiles_string = "Fc1ccc(/C=C/c2nnc(Cc3ccc(F)c(Cl)c3)o2)c(Cl)c1"
assayed_target = "A/California/07/2009 (H1N1)"
reported_relation = "<"
endpoint_value = 4.30

[[record]]
smiles_string = "Fc1ccc(/C=C/c2nnc(Cc3ccc(Cl)nc3)o2)c(Cl)c1"
assayed_target = "A/California/07/2009 (H1N1)"
reported_relation = "="
endpoint_value = 5.98

[[record]]
smiles_string = "Cc1ccc(/C=C/c2nnc(Cc3cccc(Br)c3)o2)c(C)c1"
assayed_target = "A/California/07/2009 (H1N1)"
reported_relation = "="
endpoint_value = 4.93

[[record]]
smiles_string = "Cc1ccc(F)c(Cc2nnc(/C=C/c3ccc(F)cc3Cl)o2)c1"
assayed_target = "A/California/07/2009 (H1N1)"
reported_relation = "="
endpoint_value = 6.08

[[record]]
smiles_string = "Cc1ccccc1CCc1nnc(Nc2ccc(Br)c(F)c2)o1"
assayed_target = "A/California/07/2009 (H1N1)"
reported_relation = "="
endpoint_value = 5.04

[[record]]
smiles_string = "Cc1ccccc1CCc1nnc(Cc2ccc(Br)cc2)o1"
assayed_target = "A/California/07/2009 (H1N1)"
reported_relation = "="
endpoint_value = 5.51

[[record]]
smiles_string = "Brc1ccc(Cc2nnc(/C=C/c3ccccc3-c3ccccc3)o2)cc1"
assayed_target = "A/California/07/2009 (H1N1)"
reported_relation = "="
endpoint_value = 4.34

[[record]]
smiles_string = "Fc1ccc(Cl)c(/C=C/c2nnc(Cc3cccc(Br)c3)o2)c1"
assayed_target = "A/California/07/2009 (H1N1)"
reported_relation = "<"
endpoint_value = 4.30

[[record]]
smiles_string = "Cc1cc(C)cc(Cc2nnc(CCc3ccccc3C(C)C)o2)c1"
assayed_target = "A/California/07/2009 (H1N1)"
reported_relation = "="
endpoint_value = 4.42

[[record]]
smiles_string = "Cc1cccc(C)c1/C=C/c1nnc(Cc2ccc(Br)cc2)o1"
assayed_target = "A/California/07/2009 (H1N1)"
reported_relation = "<"
endpoint_value = 4.30

[[record]]
smiles_string = "CC(C)c1cccc(Cc2nnc(/C=C/c3ccc(F)cc3Cl)o2)c1"
assayed_target = "A/California/07/2009 (H1N1)"
reported_relation = "="
endpoint_value = 6.21

[[record]]
smiles_string = "CC(C)c1ccccc1/C=C/c1nnc(Cc2ccc(Br)c(F)c2)o1"
assayed_target = "A/California/07/2009 (H1N1)"
reported_relation = "="
endpoint_value = 5.29


---

tested on: A/California/07/2009 (H1N1); test: Antiviral activity (drug efficacy evaluation by concentration) against A/California/07/2009 (H1N1); type: cell-based, A type influenza virus; conditions: Influenza A virus, H1N1; read-out: EC50
attribute-measured: EC50 (µM)

[[record]]
compound = "Fc1ccc(/C=C/c2nnc(Cc3cccc(Br)c3)o2)cc1"
attribute_measured = "EC50"
units_label = "µM"
endpoint_value = 9.58

[[record]]
compound = "COc1ccccc1/C=C/c1nnc(Cc2ccc(Br)cc2)o1"
attribute_measured = "EC50"
units_label = "µM"
endpoint_value = 32.3

[[record]]
compound = "CC(C)c1ccccc1OCc1nnc(Cc2ccccc2)o1"
attribute_measured = "EC50"
units_label = "µM"
endpoint_value = 17.7

[[record]]
compound = "Fc1ccc(/C=C/c2nnc(Cc3cccc(Br)c3)o2)cc1F"
attribute_measured = "EC50"
units_label = "µM"
endpoint_value = 8.24

[[record]]
compound = "CC(=Cc1ccccc1C)c1nnc(Cc2ccc(Br)cc2)o1"
attribute_measured = "EC50"
units_label = "µM"
endpoint_value = 0.161

[[record]]
compound = "Fc1ccc(/C=C/c2nnc(Cc3cncc(Br)c3)o2)c(Cl)c1"
attribute_measured = "EC50"
units_label = "µM"
endpoint_value = 43

[[record]]
compound = "Cc1ccccc1CCc1nnc(Nc2ccc(F)c(Cl)c2)o1"
attribute_measured = "EC50"
units_label = "µM"
endpoint_value = 37.4

[[record]]
compound = "CC(C)c1ccccc1/C=C/c1nnc(C(C)c2ccccc2)o1 (stereo not drawn)"
attribute_measured = "EC50"
units_label = "µM"
endpoint_value = 6

[[record]]
compound = "CC(C)Cc1ccc(C(C)c2nnc(/C=C/c3ccccc3C(C)C)o2)cc1 (stereo not drawn)"
attribute_measured = "EC50"
units_label = "µM"
endpoint_value = 39.8

